System: Oculimacula yallundae
Test: Fungicidal activity against Oculimacula yallundae assessed as inhibition of germ tube elongation incubated at 19 degC in dark for 48 hr
Type: functional, organism-based
Lab note: cut-off is 0.03 µg/mL. Strictly less in EC50 is MET. Exactly 0.03 µg/mL or more is NOT MET.

Consider the worked cases shown below.
* CCCOC/C(=N\c1ccc(Cl)cc1C(F)(F)F)n1ccnc1 | NOT MET
* Cc1cc(C)nc(Nc2ccccc2)n1 | NOT MET
* CC(C)CC(C)c1sccc1NC(=O)c1cn(C)nc1C(F)(F)F (stereo not given) | MET

Confirm or reject: EC50 of CN(C/C=C/C#CC(C)(C)C)Cc1cccc2ccccc12 lies strictly below 0.03 µg/mL MET

Confirm or reject: EC50 of COC(=O)Nc1nc2ccccc2[nH]1 lies strictly below 0.03 µg/mL NOT MET

Confirm or reject: EC50 of COc1cc(C)c(C(=O)c2c(OC)ccc(Br)c2C)c(OC)c1OC lies strictly below 0.03 µg/mL NOT MET

Confirm or reject: EC50 of Cc1cc(C2CC2)nc(Nc2ccccc2)n1 lies strictly below 0.03 µg/mL MET

Confirm or reject: EC50 of CC1=C(C(=O)Nc2ccccc2)SCCO1 lies strictly below 0.03 µg/mL NOT MET

----------
System: Oculimacula yallundae
Test: Fungicidal activity against Oculimacula yallundae assessed as inhibition of germ tube elongation incubated at 19 degC in dark for 48 hr
Type: functional, organism-based
Lab note: cut-off is 0.03 µg/mL. Strictly less in EC50 is yes. Exactly 0.03 µg/mL or more is no.

Consider the worked cases shown below.
• CC(C1CC1)C(O)(Cn1cncn1)c1ccc(Cl)cc1 (centres undefined) = no
• CCCN(CCOc1c(Cl)cc(Cl)cc1Cl)C(=O)n1ccnc1 = yes
• Fc1ccc([C@]2(Cn3cncn3)O[C@H]2c2ccccc2Cl)cc1 (relative stereo) = yes
• C[Si](Cn1cncn1)(c1ccc(F)cc1)c1ccc(F)cc1 = yes
• CC1(C(=O)Nc2ccc(O)c(Cl)c2Cl)CCCCC1 = no
• Cc1cccc(N(C)C(=S)Oc2ccc3ccccc3c2)c1 [TOLNAFTATE] = no
• OC(Cc1ccccc1Cl)(Cn1nc[nH]c1=S)C1(Cl)CC1 (centres undefined) = no

Confirm or reject: EC50 of CC(Cc1ccc(C(C)(C)C)cc1)CN1C[C@@H](C)O[C@@H](C)C1 (some centres undefined) lies strictly below 0.03 µg/mL no

----------
System: Oculimacula yallundae
Test: Fungicidal activity against Oculimacula yallundae assessed as inhibition of mycelial growth in presence of 10 g glucose incubated at 19 degC in dark for 4 weeks
Assay type: functional, organism-based
Conditions: 672 h
metric-name: EC50 (µg/mL)
Kindly provide the numeric value in µg/mL only, without the unit symbol.

Which measured EC50 value corresponds to CC(Cc1ccc(C(C)(C)C)cc1)CN1C[C@@H](C)O[C@@H](C)C1 (stereo not given in full) ? 15

Which measured EC50 value corresponds to CC1(C(=O)Nc2ccc(O)c(Cl)c2Cl)CCCCC1 ? 0.4

Which measured EC50 value corresponds to CCCN(CCOc1c(Cl)cc(Cl)cc1Cl)C(=O)n1ccnc1 ? 0.05

Which measured EC50 value corresponds to CC(C)(C)C(O)(CCc1ccc(Cl)cc1)Cn1cncn1 (stereo not given) ? 0.2

Which measured EC50 value corresponds to COC(=O)Nc1nc2ccccc2[nH]1 ? 0.03

Which measured EC50 value corresponds to CCCOC/C(=N\c1ccc(Cl)cc1C(F)(F)F)n1ccnc1 ? 0.8
